settings: in n-propanol, 323.15 K
Quantity Name: solubility (mole fraction)
One number for each entry.

Lab book: solubility (mole fraction) of CCc1cc(C(N)=S)ccn1 noted as 0.0231

====

settings: in ethyl acetate, 318.15 K
Quantity Name: solubility (mole fraction)

Lab book: solubility (mole fraction) of CCc1cc(C(N)=S)ccn1 noted as 0.0312

====

details: in acetone, 318.15 K
Quantity Name: solubility (mole fraction)
Numbers only.

Lab book: solubility (mole fraction) of CCc1cc(C(N)=S)ccn1 noted as 0.0194

====

conditions: in ethyl acetate, 283.15 K
Quantity Name: solubility (mole fraction)
Numbers only.

Lab book: solubility (mole fraction) of CCc1cc(C(N)=S)ccn1 noted as 0.0102

These data points were gathered from BigSolDB 2.1.
